So I've got a bunch of binders here, and I need their pKd values.
tgt: T1, EsCas13d, nuclease-dead (Eubacterium siraeum, UniProt B0MS50, R295A;H300A;R849A;H854A)
T1 sequence: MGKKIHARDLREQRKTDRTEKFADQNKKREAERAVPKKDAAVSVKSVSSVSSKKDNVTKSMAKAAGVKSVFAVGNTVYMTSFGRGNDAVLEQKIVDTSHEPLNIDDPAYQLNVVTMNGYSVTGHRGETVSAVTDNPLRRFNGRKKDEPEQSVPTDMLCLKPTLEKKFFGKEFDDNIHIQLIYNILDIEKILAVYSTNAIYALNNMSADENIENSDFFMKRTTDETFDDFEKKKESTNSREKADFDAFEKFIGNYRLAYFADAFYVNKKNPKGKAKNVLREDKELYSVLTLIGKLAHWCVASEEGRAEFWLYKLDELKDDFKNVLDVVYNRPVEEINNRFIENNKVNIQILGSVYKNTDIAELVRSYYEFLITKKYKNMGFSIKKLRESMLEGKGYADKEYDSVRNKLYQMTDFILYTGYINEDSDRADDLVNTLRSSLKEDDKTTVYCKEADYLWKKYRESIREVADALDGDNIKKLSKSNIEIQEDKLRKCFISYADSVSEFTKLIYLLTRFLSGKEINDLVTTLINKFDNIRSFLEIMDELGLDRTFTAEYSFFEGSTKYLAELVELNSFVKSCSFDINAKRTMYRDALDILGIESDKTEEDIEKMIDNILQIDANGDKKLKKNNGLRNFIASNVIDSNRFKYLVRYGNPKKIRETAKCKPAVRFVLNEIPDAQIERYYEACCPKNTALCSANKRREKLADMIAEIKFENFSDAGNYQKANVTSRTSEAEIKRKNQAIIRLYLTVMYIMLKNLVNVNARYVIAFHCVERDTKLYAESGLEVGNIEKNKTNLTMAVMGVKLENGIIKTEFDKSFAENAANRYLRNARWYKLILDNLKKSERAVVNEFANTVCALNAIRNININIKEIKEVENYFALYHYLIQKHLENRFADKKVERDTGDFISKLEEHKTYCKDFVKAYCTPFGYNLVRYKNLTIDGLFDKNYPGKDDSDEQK
experimentDescription: crRNA (strand 1, pre-loaded); Mg2+; 40 mM Tris-HCl pH 7.5, 150 mM NaCl, 6 mM MgCl2, 1 mM DTT, 0.1% Tween-20, 0.2 mg/ml BSA; 25 C; 10 min per concentration, then washed
testParameters: tags: His6-TwinStrep-SUMO cleaved; N-terminal SNAP kept (SNAP-Surface 488); label: 3' end held by stalled T7 RNA polymerase
Numbers only, as −log10 of the molar value.

Reference set, count: 2
target 1 A18U,U19A (mixed) RNA 1: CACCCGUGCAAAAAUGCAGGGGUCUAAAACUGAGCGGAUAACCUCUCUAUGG RNA 2: GGGAAUGGAUCCACAUCUACGAAUUCGUACCAAUGAGAGGUUAUCCGCUCACCGAGAUCGGAAGAGCACACGU    7.38
target 1 G5C,A16G (mixed) RNA 1: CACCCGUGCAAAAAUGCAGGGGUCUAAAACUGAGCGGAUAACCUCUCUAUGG RNA 2: GGGAAUGGAUCCACAUCUACGAAUUCGUACCAUAGGGAGGUUAUCCCCUCACCGAGAUCGGAAGAGCACACGU    7.19

Would you be so kind as to report pKd for each listed record?
1. target 2 MT 5'PFS UGA 3'PFS CUU (mixed) RNA 1: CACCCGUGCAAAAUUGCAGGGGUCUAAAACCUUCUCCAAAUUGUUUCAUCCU RNA 2: GGGAAUGGAUCCACAUCUACGAAUUCUGAAGGAUGAAACAAUUUGGAGAAGCUUAGAUCGGAAGAGCACACGU
2. target 2 MT 5'PFS ACU 3'PFS UAC (mixed) RNA 1: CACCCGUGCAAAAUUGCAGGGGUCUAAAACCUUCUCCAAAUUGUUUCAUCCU RNA 2: GGGAAUGGAUCCACAUCUACGAAUUCACUAGGAUGAAACAAUUUGGAGAAGUACAGAUCGGAAGAGCACACGU
3. target 2 MT 5'PFS UCA 3'PFS AUA (mixed) RNA 1: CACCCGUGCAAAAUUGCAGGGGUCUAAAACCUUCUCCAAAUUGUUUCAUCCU RNA 2: GGGAAUGGAUCCACAUCUACGAAUUCUCAAGGAUGAAACAAUUUGGAGAAGAUAAGAUCGGAAGAGCACACGU
4. target 2 MT 5'PFS CAA 3'PFS AGC (mixed) RNA 1: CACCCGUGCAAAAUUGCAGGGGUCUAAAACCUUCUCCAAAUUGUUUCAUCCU RNA 2: GGGAAUGGAUCCACAUCUACGAAUUCCAAAGGAUGAAACAAUUUGGAGAAGAGCAGAUCGGAAGAGCACACGU
5. target 1 MT 5'PFS AGU 3'PFS ACU (mixed) RNA 1: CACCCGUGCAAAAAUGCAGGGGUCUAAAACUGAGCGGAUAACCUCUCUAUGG RNA 2: GGGAAUGGAUCCACAUCUACGAAUUCAGUCCAUAGAGAGGUUAUCCGCUCAACUAGAUCGGAAGAGCACACGU
6. target 1 C6G,A9U (mixed) RNA 1: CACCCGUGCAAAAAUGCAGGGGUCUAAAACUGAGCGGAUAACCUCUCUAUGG RNA 2: GGGAAUGGAUCCACAUCUACGAAUUCGUACCAUAGAGAGGUUUUCGGCUCACCGAGAUCGGAAGAGCACACGU

[7.85, 8.21, 8.21, 8.12, 7.42, 8.16]
